biological target: PRMT6 (Homo sapiens); assay: Radioisotope-based filter-binding (HotSpot) assay, PRMT6; details: read-out: IC50 (μM) PRMT6; radioisotope-based filter assay; 5 μM GST-GAR; 1 μM 3H-SAM
Sequence (Q96LA8 2-375): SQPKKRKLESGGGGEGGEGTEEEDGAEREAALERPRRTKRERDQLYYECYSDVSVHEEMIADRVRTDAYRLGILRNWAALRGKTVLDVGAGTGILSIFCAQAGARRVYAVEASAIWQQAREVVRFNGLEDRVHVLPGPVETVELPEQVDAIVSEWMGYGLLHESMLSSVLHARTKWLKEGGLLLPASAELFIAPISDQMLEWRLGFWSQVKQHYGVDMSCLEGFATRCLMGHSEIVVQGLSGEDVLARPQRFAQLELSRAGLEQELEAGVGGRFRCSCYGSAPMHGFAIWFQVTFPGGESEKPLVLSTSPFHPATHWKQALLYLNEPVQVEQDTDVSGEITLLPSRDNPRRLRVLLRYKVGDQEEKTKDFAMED
Measured Metric: IC50 (µM)

Compound | Assayed System | Measured Metric | Recorded Result
COC(=O)c1cc(O)c2cc(NC(=O)NCCCCNC(=N)NC/C=C/[C@H]3O[C@@H](n4cnc5c(N)ncnc54)[C@H](O)[C@@H]3O)ccc2c1 [12h] | PRMT6 (Homo sapiens) | IC50 | 1.75
COC(=O)c1cc(O)c2cc(NC(=O)NCCCNC(=N)NC[C@H]3O[C@@H](n4cnc5c(N)ncnc54)[C@H](O)[C@@H]3O)ccc2c1 [12a] | PRMT6 (Homo sapiens) | IC50 | 72.8
COC(=O)c1cc(O)c2cc(NC(=O)NCCCCNC(=N)NCC[C@H]3O[C@@H](n4cnc5c(N)ncnc54)[C@H](O)[C@@H]3O)ccc2c1 [12f] | PRMT6 (Homo sapiens) | IC50 | 22.7

(I) COC(=O)c1cc(O)c2cc(NC(=O)NCCCCCCCNC(=N)NC[C@H]3O[C@@H](n4cnc5c(N)ncnc54)[C@H](O)[C@@H]3O)ccc2c1 [12e]
(II) COC(=O)c1cc(O)c2cc(NC(=O)NCCCCNC(=N)NCCC[C@H]3O[C@@H](n4cnc5c(N)ncnc54)[C@H](O)[C@@H]3O)ccc2c1 [12g]
Problem: Given the entries I and II , determine which has the lower reported IC50. Please respond with the label that marks your chosen entry.
II
(II: 4.34 µM, I: 35.6 µM)

====

target: PRMT1 (Homo sapiens, UniProt Q99873); assay: AlphaLISA PRMT1 activity assay (H4R3me); conditions: AlphaLISA, hPRMT1; 10-concentration mode, threefold dilutions starting at 100 μM
Sequence (Q99873 whole entry): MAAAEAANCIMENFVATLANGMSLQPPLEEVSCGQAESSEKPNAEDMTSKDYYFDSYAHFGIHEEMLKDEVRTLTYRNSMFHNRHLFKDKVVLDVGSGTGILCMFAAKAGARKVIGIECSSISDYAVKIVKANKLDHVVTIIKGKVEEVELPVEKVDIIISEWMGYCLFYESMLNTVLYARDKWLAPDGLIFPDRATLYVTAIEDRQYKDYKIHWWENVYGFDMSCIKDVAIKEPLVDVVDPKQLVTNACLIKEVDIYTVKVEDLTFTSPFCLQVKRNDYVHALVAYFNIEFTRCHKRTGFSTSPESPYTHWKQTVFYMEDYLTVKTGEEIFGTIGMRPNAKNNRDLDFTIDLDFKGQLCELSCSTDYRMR
Measured Metric: IC50 (nM)

Below, 2 compounds whose answers are already recorded.
Test Smiles | IC50 / nM
COC(=O)c1cc(O)c2cc(NC(=O)NCCCCCNC(=N)N)ccc2c1 | 1200
COC(=O)c1cc(O)c2cc(NC(=O)CCCCCCNC(=N)N)ccc2c1 | 3800

(A) CNC(=N)NCCCNC(=O)Nc1ccc2cc(C(=O)OC)cc(O)c2c1
(B) COC(=O)c1cc(O)c2cc(NC(=O)NCCCNC(=N)N)ccc2c1
Which of the two items, A and B , has the greater recorded IC50? Please respond with the label that marks your chosen entry.
B
(B: 1600 nM, A: 400 nM)

====

biological target: human PRMT4 (full length) (Homo sapiens, UniProt Q86X55); construct: Full-length recombinant PRMT4 (Active motif, # 81107); purchased Active motif # 81107; assay: SPR binding to immobilized PRMT4; details: SPR, immobilized PRMT4; read-out: kon
Sequence (Q86X55 whole entry): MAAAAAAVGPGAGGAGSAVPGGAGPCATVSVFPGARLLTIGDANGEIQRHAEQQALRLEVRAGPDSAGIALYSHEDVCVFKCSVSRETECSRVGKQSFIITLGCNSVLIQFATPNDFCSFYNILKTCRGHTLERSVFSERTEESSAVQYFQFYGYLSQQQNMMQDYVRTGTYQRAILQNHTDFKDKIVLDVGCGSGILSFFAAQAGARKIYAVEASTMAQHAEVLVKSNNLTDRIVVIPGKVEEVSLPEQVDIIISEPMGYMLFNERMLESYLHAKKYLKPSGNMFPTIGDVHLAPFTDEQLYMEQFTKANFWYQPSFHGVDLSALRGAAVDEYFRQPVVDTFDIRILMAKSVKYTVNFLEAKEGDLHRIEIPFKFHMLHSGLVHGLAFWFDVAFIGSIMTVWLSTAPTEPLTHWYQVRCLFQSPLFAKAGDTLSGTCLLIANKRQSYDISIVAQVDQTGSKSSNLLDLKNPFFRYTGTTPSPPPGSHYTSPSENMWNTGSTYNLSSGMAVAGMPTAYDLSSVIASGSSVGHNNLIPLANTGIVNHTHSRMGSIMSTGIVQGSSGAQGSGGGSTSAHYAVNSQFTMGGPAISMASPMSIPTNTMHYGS
Measured Metric: kon (M⁻¹ s⁻¹)

Compound | Readout Units | kon
COC(=O)c1cc(O)c2cc(NC(=O)NCCCCCCCNC(=N)NC[C@H]3O[C@@H](n4cnc5c(N)ncnc54)[C@H](O)[C@@H]3O)ccc2c1 [12e] | M⁻¹ s⁻¹ | 25800
COC(=O)c1cc(O)c2cc(NC(=O)NCCCCNC(=N)NCC[C@H]3O[C@@H](n4cnc5c(N)ncnc54)[C@H](O)[C@@H]3O)ccc2c1 [12f] | M⁻¹ s⁻¹ | 2.7e+06
COC(=O)c1cc(O)c2cc(NC(=O)NCCCCNC(=N)NC[C@H]3O[C@@H](n4cnc5c(N)ncnc54)[C@H](O)[C@@H]3O)ccc2c1 [12b] | M⁻¹ s⁻¹ | 6520
COC(=O)c1cc(O)c2cc(NC(=O)NCCCCCCNC(=N)NC[C@H]3O[C@@H](n4cnc5c(N)ncnc54)[C@H](O)[C@@H]3O)ccc2c1 [12d] | M⁻¹ s⁻¹ | 270000

(I) COC(=O)c1cc(O)c2cc(NC(=O)NCCCCNC(=N)NCCC[C@H]3O[C@@H](n4cnc5c(N)ncnc54)[C@H](O)[C@@H]3O)ccc2c1 [12g]
(II) COC(=O)c1cc(O)c2cc(NC(=O)NCCCCCNC(=N)NC[C@H]3O[C@@H](n4cnc5c(N)ncnc54)[C@H](O)[C@@H]3O)ccc2c1 [12c]
Problem: Given the entries I and II , determine which has the lower reported kon. Please respond with the label that marks your chosen entry.
II
(II: 34900 M⁻¹ s⁻¹, I: 250000 M⁻¹ s⁻¹)
